- Measured On: hSGLT1 (Homo sapiens, UniProt P13866)
- Construct: hSGLT1GFP-MAP17nb: GFP fused between Q581 and E582 of hSGLT1; anti-GFP nanobody fused after E57 of MAP17 (1-57); in nanodisc; with MAP17
- Sequence (P13866 1-581): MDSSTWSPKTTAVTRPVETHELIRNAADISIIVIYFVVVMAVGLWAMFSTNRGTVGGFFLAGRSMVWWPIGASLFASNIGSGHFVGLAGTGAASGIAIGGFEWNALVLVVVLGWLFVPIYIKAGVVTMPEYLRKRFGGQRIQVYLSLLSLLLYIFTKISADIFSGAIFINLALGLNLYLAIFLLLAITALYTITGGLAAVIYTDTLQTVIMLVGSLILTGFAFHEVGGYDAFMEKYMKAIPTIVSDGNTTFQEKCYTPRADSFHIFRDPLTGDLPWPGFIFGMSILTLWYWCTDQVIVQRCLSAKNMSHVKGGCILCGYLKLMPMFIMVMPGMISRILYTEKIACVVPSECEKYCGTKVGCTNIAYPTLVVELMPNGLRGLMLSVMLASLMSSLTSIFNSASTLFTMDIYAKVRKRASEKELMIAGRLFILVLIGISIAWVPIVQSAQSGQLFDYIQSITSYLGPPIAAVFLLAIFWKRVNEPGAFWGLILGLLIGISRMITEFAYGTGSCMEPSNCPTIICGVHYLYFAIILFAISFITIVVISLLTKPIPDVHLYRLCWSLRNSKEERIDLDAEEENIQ
- Sequence (P13866 582-664): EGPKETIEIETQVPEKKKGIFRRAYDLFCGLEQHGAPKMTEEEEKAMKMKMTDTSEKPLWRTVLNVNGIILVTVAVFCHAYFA
- Sequence (Q13113 1-57 partner): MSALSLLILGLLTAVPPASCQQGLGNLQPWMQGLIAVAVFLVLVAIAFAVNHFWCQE
- Test Details: cryo-EM structure at […] Å; 1-NBD-glucose uptake inhibition in cells (IC50 […] for this construct, […] for non-tagged hSGLT1)
pIC50: −log10 of the molar value.
Readout: pIC50

- Molecule: "CS[C@H]1O[C@@H](c2ccc(C)c(Cc3ccc(CCCC(=O)NC(C)(C)C(=O)NCCN(C)C)cc3)c2)[C@H](O)[C@@H](O)[C@@H]1O [LX2761]"
  Test Value: 8.64
